target entity: Factor X (FX), P00742
Sequence (P00742 whole entry, looked up): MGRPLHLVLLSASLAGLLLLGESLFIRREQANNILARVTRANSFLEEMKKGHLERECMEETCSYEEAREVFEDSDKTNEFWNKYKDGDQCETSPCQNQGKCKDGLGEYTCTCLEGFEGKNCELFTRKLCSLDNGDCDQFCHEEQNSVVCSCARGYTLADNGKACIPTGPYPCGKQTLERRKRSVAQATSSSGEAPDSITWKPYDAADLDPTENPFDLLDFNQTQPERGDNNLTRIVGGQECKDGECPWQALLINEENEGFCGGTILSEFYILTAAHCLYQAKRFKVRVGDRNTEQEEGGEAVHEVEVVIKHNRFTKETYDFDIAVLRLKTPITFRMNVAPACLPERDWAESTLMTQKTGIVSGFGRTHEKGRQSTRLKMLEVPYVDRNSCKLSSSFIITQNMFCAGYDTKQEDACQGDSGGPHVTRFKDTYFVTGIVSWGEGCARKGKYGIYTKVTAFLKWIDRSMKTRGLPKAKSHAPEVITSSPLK
measurement kind: % of WT kcat/KM (%)
Use % as the unit, but write only the number.

Endpoint output: % of WT kcat/KM of FIXa variant Y155F/R338E/R403E/E410N (protein) chain 1: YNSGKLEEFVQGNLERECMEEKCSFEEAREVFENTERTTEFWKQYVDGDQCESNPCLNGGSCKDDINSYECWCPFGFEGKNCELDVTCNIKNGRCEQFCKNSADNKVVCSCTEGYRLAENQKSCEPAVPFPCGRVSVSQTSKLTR chain 2: VVGGEDAKPGQFPWQVVLNGKVDAFCGGSIVNEKWIVTAAHCVETGVKITVVAGEHNIEETEHTEQKRNVIRIIPHHNYNAAINKYNHDIALLELDEPLVLNSYVTPICIADKEYTNIFLKFGSGYVSGWGRVFHKGRSALVLQYLRVPLVDRATCLESTKFTIYNNMFCAGFHEGGRDSCQGDSGGPHVTEVEGTSFLTGIISWGEECAMKGKYGIYTKVSEYVNWIKNKTKLT . Value? 401

What do we get for FIXa variant Y155F/R318Y/R338E/E410N (protein) chain 1: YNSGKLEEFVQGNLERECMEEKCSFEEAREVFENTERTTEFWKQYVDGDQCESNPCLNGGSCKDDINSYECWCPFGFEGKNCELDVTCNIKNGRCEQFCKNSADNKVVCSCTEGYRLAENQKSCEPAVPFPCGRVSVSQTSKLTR chain 2: VVGGEDAKPGQFPWQVVLNGKVDAFCGGSIVNEKWIVTAAHCVETGVKITVVAGEHNIEETEHTEQKRNVIRIIPHHNYNAAINKYNHDIALLELDEPLVLNSYVTPICIADKEYTNIFLKFGSGYVSGWGRVFHKGYSALVLQYLRVPLVDRATCLESTKFTIYNNMFCAGFHEGGRDSCQGDSGGPHVTEVEGTSFLTGIISWGEECAMKGKYGIYTKVSRYVNWIKNKTKLT ? 810
